Source listed as patent US7291603B2.

Test system: luciferase reporter construct containing a UGA premature termination codon stably transfected in 293T Human Embryonic Kidney cells
Experiment: cell-based luciferase reporter assay (nonsense suppression)
Set-up: key: Compounds which were found to have either or both very high potency and very high efficacy of protein synthesis are classified as “***”; Compounds which were found to have significant potency and/or efficacy of protein synthesis were classified as “**”; compounds which were found to have potency and/or efficacy of protein synthesis were classified as “*”
Conditions: UGA premature termination codon luciferase reporter in 293T cells; gentamicin internal standard; qualitative potency/efficacy of protein synthesis
MEASURE: Activity

INSERT INTO measurements (compound, observed_measurement) VALUES
  ('CSc1ncnc(N[C@@H]2O[C@H](CO)[C@@H](O)[C@H]2O)c1[N+](=O)[O-]', '*'),
  ('Nc1ncnc(NC2O[C@H](CO)[C@@H](O)[C@H]2O)c1[N+](=O)[O-] (stereo in doubt)', '***'),
  ('Nc1ncnc(N[C@@H]2O[C@H](CO)[C@@H](O)[C@H]2O)c1[N+](=O)[O-]', '***'),
  ('[N-]=[N+]=NC[C@H]1O[C@@H](Nc2ncnc(N)c2[N+](=O)[O-])[C@H](O)[C@@H]1O', '*'),
  ('O=[N+]([O-])c1ccc(N[C@@H]2O[C@H](CO)[C@@H](O)[C@H]2O)nc1', '*'),
  ('COc1ccc(CNc2ncnc(N[C@@H]3O[C@H](CO)[C@@H](O)[C@H]3O)c2C#N)cc1', 0),
  ('COC(=O)c1c(N)ncnc1N[C@@H]1O[C@H](CO)[C@@H](O)[C@H]1O', '*'),
  ('Nc1ncnc(N[C@@H]2O[C@H](CF)[C@@H](O)[C@H]2O)c1[N+](=O)[O-]', '*'),
  ('Cc1cc(N[C@@H]2O[C@H](CO)[C@@H](O)[C@H]2O)ncc1[N+](=O)[O-]', '*'),
  ('O=[N+]([O-])c1c(O)ncnc1N[C@@H]1O[C@H](CO)[C@@H](O)[C@H]1O', '*'),
  ('CN(C)c1ncnc(N[C@@H]2O[C@H](CO)[C@@H](O)[C@H]2O)c1[N+](=O)[O-]', 0),
  ('Nc1ncnc(N[C@@H]2O[C@H](CO)[C@@H](O)[C@H]2O)c1N', '*'),
  ('Nc1ncnc(N[C@H]2O[C@@H](CO)[C@H](O)[C@@H]2O)c1[N+](=O)[O-]', '**'),
  ('Nc1ncnc(N[C@H]2C[C@@H](CO)[C@H](O)[C@@H]2O)c1[N+](=O)[O-]', 0),
  ('Nc1ncnc(N[C@@H]2C[C@H](CO)[C@@H](O)[C@H]2O)c1[N+](=O)[O-]', 0),
  ('CNc1ncnc(N[C@@H]2O[C@H](CO)[C@@H](O)[C@H]2O)c1[N+](=O)[O-]', '**');
